- Test system: K98450-129-R-PDC complex spheroid growth, percent test/control
- assay-procedure: Anticancer human tumor K98450-129-R-PDC patient-derived colon adenocarcinoma cell line growth inhibition [RAS]
- assay-conditions: second compound 0.0316 µM; first compound 1 µM; stronger effect = lower value
experimental-readout: viability, T/C

compound	viability, T/C
CC(=O)OC12COC1CC(O)C1(C)C(=O)C(O)C3=C(C)C(OC(=O)C(O)C(NC(=O)OC(C)(C)C)c4ccccc4)CC(O)(C(OC(=O)c4ccccc4)C21)C3(C)C (stereo not drawn) + C#Cc1c(F)ccc2cc(O)cc(-c3ncc4c(N5CC6CCC(C5)N6)nc(OCC56CCCN5CC(F)C6)nc4c3F)c12	34.7%

### Prompt What does the record list as viability, T/C for CC1(O)CCCC1n1c(=O)c(C(F)F)cc2cnc(NC3CCN(S(C)(=O)=O)CC3)nc21 (stereo not drawn) + C#Cc1c(F)ccc2cc(O)cc(-c3ncc4c(N5CC6CCC(C5)N6)nc(OCC56CCCN5CC(F)C6)nc4c3F)c12 ?
### Response 78.3%

### Prompt // repeat for CCC(CC)c1cc(NC2CCC(N)C2)n2nccc2n1 (stereo not drawn) + C#Cc1c(F)ccc2cc(O)cc(-c3ncc4c(N5CC6CCC(C5)N6)nc(OCC56CCCN5CC(F)C6)nc4c3F)c12 and report
### Response 106%

###

viability, T/C: recorded values
- System: K98450-129-R-PDC complex spheroid growth, percent test/control
- assay-procedure: Anticancer human tumor K98450-129-R-PDC cell line growth inhibition [RAS];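 note: spheroids exposed to agents for seven days before the viability readout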;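 for viability, T/C: luminescence used as a proxy for viable cell amount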
- assay-conditions: second compound 0.1 µM; first compound 0.1 µM; stronger effect = lower value
- Description: RAS pathway inhibitors in Combinations in Complex Spheroids A high-throughput screen of multi-cell type tumor spheroids was designed to identify active combinations of RAS pathway inhibitors and targeted small molecules. Complex spheroids include a stromal component modeled by human endothelial cells (HUVEC) and fibroblasts modeled by human mesenchymal stem cells (MSCs). […] Compounds. […] If the clinical Cmax for an agent had not been determined, the highest concentration tested was 10 microM. […]
A number alone suffices; assume %.

As a guide, the following entries are already answered.
compound	viability, T/C (%)
CCN1CCN(Cc2ccc(Nc3ncc(F)c(-c4cc(F)c5nc(C)n(C(C)C)c5c4)n3)nc2)CC1 + C#Cc1c(F)ccc2cc(O)cc(-c3ncc4c(N5CC6CCC(C5)N6)nc(OCC56CCCN5CC(F)C6)nc4c3F)c12	86.9
O=C(c1ccc(F)c(F)c1Nc1ccc(I)cc1F)N1CC(O)([C@@H]2CCCCN2)C1 + C#Cc1c(F)ccc2cc(O)cc(-c3ncc4c(N5CC6CCC(C5)N6)nc(OCC56CCCN5CC(F)C6)nc4c3F)c12	84.3
CC(C)NCC(C(=O)N1CCN(c2ncnc3c2C(C)CC3O)CC1)c1ccc(Cl)cc1 (stereo not given) + C#Cc1c(F)ccc2cc(O)cc(-c3ncc4c(N5CC6CCC(C5)N6)nc(OCC56CCCN5CC(F)C6)nc4c3F)c12	96.9

### Prompt Reported viability, T/C for CC(=O)OC12COC1CC(O)C1(C)C(=O)C(O)C3=C(C)C(OC(=O)C(O)C(NC(=O)OC(C)(C)C)c4ccccc4)CC(O)(C(OC(=O)c4ccccc4)C21)C3(C)C (stereo not given) + C#Cc1c(F)ccc2cc(O)cc(-c3ncc4c(N5CC6CCC(C5)N6)nc(OCC56CCCN5CC(F)C6)nc4c3F)c12 : what is it?
### Response 103

### Prompt Do the same for CC1(O)CCCC1n1c(=O)c(C(F)F)cc2cnc(NC3CCN(S(C)(=O)=O)CC3)nc21 (stereo not given) + C=CC(=O)N1CCN(c2nc(OCC3CCCN3C)nc3c(F)c(-c4nc(N)cc(C)c4C(F)(F)F)c(Cl)cc23)C(C)C1 please
### Response 55.6

###

Measured viability, T/C accompanies every entry in the list below.
- Tested on: K98450-129-R-PDC complex spheroid growth, percent test/control
- assay-procedure: Anticancer human tumor K98450-129-R-PDC cell line growth inhibition [RAS];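 note: spheroids exposed to agents for seven days before the viability readout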;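 for viability, T/C: luminescence used as a proxy for viable cell amount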
- assay-conditions: second compound 0.0949 µM; first compound 0.0316 µM; stronger effect = lower value
I only need the number, in %, no unit after it.

Below, 3 molecules whose answers are already recorded.
molecule	test-system	experimental-readout	unit-string	recorded-result
C=CC(=O)Nc1cc(Nc2nccc(-c3cn(C)c4ccccc34)n2)c(OC)cc1N(C)CCN(C)C + CCn1c(-c2cccnc2C(C)OC)c2c3cc(ccc31)N1CCOC(CC(NC(=O)C(C(C)C)N(C)C(=O)C3(F)CCN(C(=O)C#CC(C)(C)N(C)C)CC3)C(=O)N3CCCC(N3)C(=O)OCC(C)(C)C2)C1	K98450-129-R-PDC complex spheroid growth, percent test/control	viability, T/C	%	26.2
O=C(c1ccc(F)c(F)c1Nc1ccc(I)cc1F)N1CC(O)([C@@H]2CCCCN2)C1 + CCn1c(-c2cccnc2C(C)OC)c2c3cc(ccc31)N1CCOC(CC(NC(=O)C(C(C)C)N(C)C(=O)C3(F)CCN(C(=O)C#CC(C)(C)N(C)C)CC3)C(=O)N3CCCC(N3)C(=O)OCC(C)(C)C2)C1	K98450-129-R-PDC complex spheroid growth, percent test/control	viability, T/C	%	19.7
CC(=O)OC12COC1CC(O)C1(C)C(=O)C(O)C3=C(C)C(OC(=O)C(O)C(NC(=O)OC(C)(C)C)c4ccccc4)CC(O)(C(OC(=O)c4ccccc4)C21)C3(C)C (centres undefined) + CCn1c(-c2cc(N3CCN(C)CC3)cnc2C(C)OC)c2c3cc(ccc31)-c1csc(n1)CC(NC(=O)C1CC1C)C(=O)N1CCCC(N1)C(=O)OCC(C)(C)C2	K98450-129-R-PDC complex spheroid growth, percent test/control	viability, T/C	%	17.3

Kindly review the next molecule as well.
### Prompt Given the molecule C=CC(=O)N1CCN(c2nc(OCC3CCCN3C)nc3c(F)c(-c4nc(N)cc(C)c4C(F)(F)F)c(Cl)cc23)C(C)C1 (centres undefined) + CCn1c(-c2cc(N3CCN(C)CC3)cnc2C(C)OC)c2c3cc(ccc31)-c1csc(n1)CC(NC(=O)C1CC1C)C(=O)N1CCCC(N1)C(=O)OCC(C)(C)C2 , what is its reported viability, T/C?
### Response 14.4

###

- System: K98450-129-R-PDC complex spheroid growth, percent test/control
- assay-procedure: Anticancer human tumor K98450-129-R-PDC cell line growth inhibition [RAS];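 note: spheroids exposed to agents for seven days before the viability readout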;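 for viability, T/C: luminescence used as a proxy for viable cell amount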
- assay-conditions: second compound 10 µM; first compound 1 µM; stronger effect = lower value
experimental-readout: viability, T/C (%)
Form entry: value (%) — number only.

Worked cases, answers included:
molecule	experimental-readout	recorded-result
C[C@@H](NC(=O)c1ncnc(N)c1Cl)c1ncc(C(=O)Nc2cc(C(F)(F)F)c(Cl)cn2)s1 + C#Cc1c(F)ccc2cc(O)cc(-c3ncc4c(N5CC6CCC(C5)N6)nc(OCC56CCCN5CC(F)C6)nc4c3F)c12	viability, T/C	100
C=CC(=O)Nc1cc(Nc2nccc(-c3cn(C)c4ccccc34)n2)c(OC)cc1N(C)CCN(C)C + C#Cc1c(F)ccc2cc(O)cc(-c3ncc4c(N5CC6CCC(C5)N6)nc(OCC56CCCN5CC(F)C6)nc4c3F)c12	viability, T/C	10.6

Okay, next one:
### Prompt Bench note: what viability, T/C did NC1c2ccccc2OC12CCN(c1cnc3c(N4CCCc5ncccc54)n[nH]c3n1)CC2 (stereo not drawn) + C#Cc1c(F)ccc2cc(O)cc(-c3ncc4c(N5CC6CCC(C5)N6)nc(OCC56CCCN5CC(F)C6)nc4c3F)c12 show?
### Response 6.21

###

Listing of entries alongside the reported IC50.
- Tested on: K98450-129-R-PDC complex spheroid growth, percent test/control
- assay-procedure: Anticancer human tumor K98450-129-R-PDC cell line growth inhibition [RAS];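 note: spheroids exposed to agents for seven days before the viability readout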
- assay-conditions: curve of first compound; second compound 0.000949 µM

molecule	IC50
CC(C)n1nc(-c2ccc3oc(N)nc3c2)c2c(N)ncnc21 + CCn1c(-c2cc(N3CCN(C)CC3)cnc2C(C)OC)c2c3cc(ccc31)-c1csc(n1)CC(NC(=O)C1CC1C)C(=O)N1CCCC(N1)C(=O)OCC(C)(C)C2	> 0.1 µM
C[C@@H](NC(=O)c1ncnc(N)c1Cl)c1ncc(C(=O)Nc2cc(C(F)(F)F)c(Cl)cn2)s1 + CCn1c(-c2cc(N3CCN(C)CC3)cnc2C(C)OC)c2c3cc(ccc31)-c1csc(n1)CC(NC(=O)C1CC1C)C(=O)N1CCCC(N1)C(=O)OCC(C)(C)C2	> 10 µM
NC1c2ccccc2OC12CCN(c1cnc3c(N4CCCc5ncccc54)n[nH]c3n1)CC2 (centres undefined) + CCn1c(-c2cccnc2C(C)OC)c2c3cc(ccc31)N1CCOC(CC(NC(=O)C(C(C)C)N(C)C(=O)C3(F)CCN(C(=O)C#CC(C)(C)N(C)C)CC3)C(=O)N3CCCC(N3)C(=O)OCC(C)(C)C2)C1	< 0.0316 µM

Now take the following molecule into account.
### Prompt Lookup: IC50 / K98450-129-R-PDC complex spheroid growth, percent test/control / O=C(c1ccc(F)c(F)c1Nc1ccc(I)cc1F)N1CC(O)([C@@H]2CCCCN2)C1 + CCn1c(-c2cccnc2C(C)OC)c2c3cc(ccc31)N1CCOC(CC(NC(=O)C(C(C)C)N(C)C(=O)C3(F)CCN(C(=O)C#CC(C)(C)N(C)C)CC3)C(=O)N3CCCC(N3)C(=O)OCC(C)(C)C2)C1
### Response 0.0647 µM

These measurements were taken from PubChem BioAssay AID2060891.
